Each record here notes measured pEC50.
Target: Growth hormone secretagogue receptor type 1 (Rattus norvegicus)
Sequence (O08725 whole entry): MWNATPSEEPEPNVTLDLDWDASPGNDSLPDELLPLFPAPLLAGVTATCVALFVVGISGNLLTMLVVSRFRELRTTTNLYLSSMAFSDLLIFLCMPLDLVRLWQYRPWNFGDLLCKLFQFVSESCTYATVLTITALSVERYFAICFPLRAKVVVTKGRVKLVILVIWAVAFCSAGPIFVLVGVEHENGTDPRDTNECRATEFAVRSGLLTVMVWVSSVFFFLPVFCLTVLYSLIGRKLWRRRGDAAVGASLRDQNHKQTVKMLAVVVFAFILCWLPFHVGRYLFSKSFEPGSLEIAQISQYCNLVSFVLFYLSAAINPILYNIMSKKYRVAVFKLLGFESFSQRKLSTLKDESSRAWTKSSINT
Test: In vitro growth hormone release was determined in rat pituitary cell assay
pEC50: −log10 of the molar value.
endpoint: pEC50

INSERT INTO assay_data (compound, number) VALUES
  ('CC(C)(N)C(=O)N[C@H](Cc1c[nH]c2ccccc12)C(=O)N1CCC2(CC1)Cc1ccccc1C2=O', 7.38),
  ('CC(C)(N)C(=O)N[C@H](Cc1c[nH]c2ccccc12)C(=O)N1CCC[C@@]2(CC(=O)c3ccccc3O2)C1', 8.92),
  ('CC(C)(N)C(=O)N[C@H](Cc1c[nH]c2ccccc12)C(=O)N1CCC2(CCc3ccccc3O2)CC1', 7.60),
  ('CC(C)(N)C(=O)N[C@H](Cc1c[nH]c2ccccc12)C(=O)N1CCC2(CC1)Cc1ccccc1C2', 7.43),
  ('CC(C)(N)C(=O)N[C@H](Cc1c[nH]c2ccccc12)C(=O)N1CCCC2(CCc3ccccc3O2)C1 (some centres not stated)', 8.54),
  ('CC(C)(N)C(=O)N[C@H](Cc1c[nH]c2ccccc12)C(=O)N1CCC2(CC1)Cc1ccccc1C2O (some centres not stated)', 7.72),
  ('CC(C)(N)C(=O)N[C@H](Cc1c[nH]c2ccccc12)C(=O)N1CCC2(CCc3ccccc32)CC1', 7.85),
  ('CC(C)(N)CC(=O)N[C@@H]1CCc2ccccc2N(Cc2ccc(-c3ccccc3-c3nnn[nH]3)cc2)C1=O', 7.22),
  ('CC(C)(N)C(=O)N[C@H](Cc1c[nH]c2ccccc12)C(=O)N1CCCC2(Cc3ccccc3C2=O)C1 (some centres not stated)', 7.70),
  ('CC(C)(N)C(=O)N[C@H](Cc1c[nH]c2ccccc12)C(=O)N1CCCC2(Cc3ccccc3C2)C1', 7.22),
  ('CC(C)(N)C(=O)N[C@H](Cc1c[nH]c2ccccc12)C(=O)N1CCC2(CC1)CC(=O)c1ccccc1O2', 7.43),
  ('CC(C)(N)C(=O)N[C@H](Cc1c[nH]c2ccccc12)C(=O)N1CCCC2(CC(O)c3ccccc3O2)C1 (some centres not stated)', 8.92),
  ('CC(C)(N)C(=O)N[C@H](Cc1c[nH]c2ccccc12)C(=O)N1CCC2(CCCc3ccccc32)CC1', 7.18),
  ('CC(C)(N)C(=O)N[C@H](Cc1c[nH]c2ccccc12)C(=O)N1CCC[C@]2(CC(=O)c3ccccc3O2)C1', 7.24),
  ('CC(C)(N)C(=O)N[C@H](Cc1c[nH]c2ccccc12)C(=O)N1CCCC2(CCc3ccccc32)C1 (some centres not stated)', 6.20),
  ('CC(C)(N)C(=O)N[C@H](Cc1c[nH]c2ccccc12)C(=O)N1CCC2(CC1)CC(O)c1ccccc1O2 (some centres not stated)', 7.80),
  ('CC(C)(N)C(=O)N[C@H](Cc1c[nH]c2ccccc12)C(=O)N1CCCC2(CC(=O)c3ccccc3O2)C1 (some centres not stated)', 8.74);
